Known melting point of a selection of compounds
measured-property: melting point

[[record]]
compound = "COc1cc(CC(=O)Nc2cnn(Cc3c(C)noc3C)c2)cc(OC)c1O"
observed_measurement = "187 to 188 °C"

[[record]]
compound = "COc1cc(O)cc(CN2C(=O)N(c3cnn(Cc4c(C)noc4C)c3)C(=O)C2(C)C)c1"
observed_measurement = "72 to 74 °C"

[[record]]
compound = "Cc1noc(C)c1Cn1cc(NC(=O)c2ccccn2)cn1"
observed_measurement = "135 to 137 °C"

[[record]]
compound = "Cc1noc(C)c1Cn1cc(NC(=O)C(C)c2ccccc2)cn1 (stereo not drawn)"
observed_measurement = "129 to 130 °C"

[[record]]
compound = "Cc1noc(C)c1Cn1cc(NC(=O)C23CC4CC(CC(C4)C2)C3)cn1"
observed_measurement = "167 to 169 °C"

[[record]]
compound = "Cc1noc(C)c1Cn1cc(N2C(=O)NC(Cc3ccccc3)C2=O)cn1 (stereo not drawn)"
observed_measurement = "169 to 171 °C"

[[record]]
compound = "Cc1noc(C)c1Cn1cc(NC(=O)c2scc(S(C)(=O)=O)c2Cl)cn1"
observed_measurement = "202 to 204 °C"

[[record]]
compound = "Cc1noc(C)c1Cn1cc(N2C(=O)c3ccccc3C2=O)cn1"
observed_measurement = "170 to 171 °C"

[[record]]
compound = "COc1cccc(C(=O)Nc2cnn(Cc3c(C)noc3C)c2)c1"
observed_measurement = "127 to 129 °C"


----------
Target: UniProt Q9NYV8
Experiment: hT2R14 antagonist high-throughput FLIPR assay, stable cell line with G16g44, agonist aristolochic acid
Type: cell-based
Conditions: Table C; read-out: hT2R14 IC50
Procedure: The inventors also used the automated fluorimetric […] system FLIPR using a slightly different protocol. A HEK293 cell line stably expressing G16gust44 was transfected with a hT2R expression plasmid, 24 hours later, the cells are loaded and analyzed on FLIPR. […]
pIC50: −log10 of the molar value.
measured-property: pIC50

[[record]]
compound = "COc1ccc(C2Cc3ccccc3CN2S(=O)(=O)c2ccc(C(=O)O)cc2)cc1 (centres unmarked)"
measured_property = "pIC50"
observed_measurement = 5.20

[[record]]
compound = "O=C(O)c1ccc(S(=O)(=O)N(Cc2ccccc2)Cc2ccc(O)cc2)cc1"
measured_property = "pIC50"
observed_measurement = 5.28

[[record]]
compound = "COc1ccc(CN(Cc2ccccc2)S(=O)(=O)c2cccc(OC)c2)cc1"
measured_property = "pIC50"
observed_measurement = 5.65

[[record]]
compound = "CCOC(=O)C1CCC(CN(Cc2ccccc2)S(=O)(=O)c2ccc(Br)cc2)CC1 (centres unmarked)"
measured_property = "pIC50"
observed_measurement = 5.63

[[record]]
compound = "COc1ccc(CN(C(C)c2ccccc2)S(=O)(=O)c2ccc(C(=O)O)cc2)cc1 (centres unmarked)"
measured_property = "pIC50"
observed_measurement = 5.85

[[record]]
compound = "Cc1ccc(S(=O)(=O)N(Cc2ccc(C#N)cc2)CC2CCC(C(=O)O)CC2)cc1 (centres unmarked)"
measured_property = "pIC50"
observed_measurement = 6.30

[[record]]
compound = "CCOC(=O)C1CCC(CN(Cc2ccccc2)S(=O)(=O)c2ccc(Cl)cc2)CC1 (centres unmarked)"
measured_property = "pIC50"
observed_measurement = 6.17

[[record]]
compound = "COc1ccc(CN(Cc2ccccc2C)S(=O)(=O)c2ccc(C(=O)O)cc2)cc1"
measured_property = "pIC50"
observed_measurement = 5.27

[[record]]
compound = "O=C(O)c1ccc(S(=O)(=O)N(Cc2ccccc2)Cc2ccc3c(c2)OCO3)cc1"
measured_property = "pIC50"
observed_measurement = 5.66

[[record]]
compound = "O=C(O)c1ccc(CN(Cc2ccccc2F)S(=O)(=O)c2ccccc2)cc1"
measured_property = "pIC50"
observed_measurement = 6.37

[[record]]
compound = "CSc1ccc(CN(Cc2ccccc2)S(=O)(=O)c2ccc(C(=O)O)cc2)cc1"
measured_property = "pIC50"
observed_measurement = 5.61

[[record]]
compound = "O=C(O)c1ccc(CN(Cc2ccccc2)S(=O)(=O)c2ccc(Cl)cc2)cc1"
measured_property = "pIC50"
observed_measurement = 6.40

[[record]]
compound = "O=C(O)c1ccc(S(=O)(=O)N(Cc2ccccc2)Cc2ccc(Cl)cc2)cc1"
measured_property = "pIC50"
observed_measurement = 5.40

[[record]]
compound = "O=C(O)c1ccc(S(=O)(=O)N(Cc2ccccc2)Cc2ccccc2Cl)cc1"
measured_property = "pIC50"
observed_measurement = 5.35

[[record]]
compound = "COc1ccccc1CN(Cc1ccccc1)S(=O)(=O)c1ccc(C(=O)O)cc1"
measured_property = "pIC50"
observed_measurement = 5.30

[[record]]
compound = "O=C(O)c1ccc(CN(Cc2ccc(F)cc2)S(=O)(=O)c2ccccc2)cc1"
measured_property = "pIC50"
observed_measurement = 6.03

[[record]]
compound = "O=C(O)c1ccc(S(=O)(=O)N(Cc2ccccc2)Cc2cccc(Cl)c2)cc1"
measured_property = "pIC50"
observed_measurement = 5.37


----------
Target: hT2R14 (Homo sapiens (Human), UniProt Q9NYV8)
Sequence (Q9NYV8 whole entry): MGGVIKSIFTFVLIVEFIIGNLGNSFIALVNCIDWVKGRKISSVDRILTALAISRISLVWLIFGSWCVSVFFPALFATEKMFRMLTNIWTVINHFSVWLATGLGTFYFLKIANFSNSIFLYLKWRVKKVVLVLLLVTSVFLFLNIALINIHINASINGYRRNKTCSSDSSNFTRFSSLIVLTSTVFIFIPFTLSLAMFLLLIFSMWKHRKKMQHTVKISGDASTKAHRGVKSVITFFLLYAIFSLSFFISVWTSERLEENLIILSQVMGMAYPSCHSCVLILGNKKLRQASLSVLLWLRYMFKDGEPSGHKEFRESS
Assay: hT2R14 antagonist high-throughput FLIPR assay, stable cell line with G16g44, agonist aristolochic acid
Assay type: cell-based
Settings: read-out: IC50 on hT2R14 bitter receptor
Description: The inventors also used the automated fluorimetric […] system FLIPR using a slightly different protocol. A HEK293 cell line stably expressing G16gust44 was transfected with a hT2R expression plasmid, 24 hours later, the cells are loaded and analyzed on FLIPR. […]
pIC50: −log10 of the molar value.
measured-property: pIC50

[[record]]
compound = "COc1ccc(CN(Cc2ccc(OC)c(OC)c2)S(=O)(=O)c2ccc(C(=O)O)cc2)cc1 [Example 5-40]"
observed_measurement = 5.83

[[record]]
compound = "COc1ccc(CN(Cc2ccco2)S(=O)(=O)c2ccc(C(=O)O)cc2)cc1 [Example 5-2]"
observed_measurement = 6.23

[[record]]
compound = "COc1cccc(CN(Cc2ccco2)S(=O)(=O)c2ccc(C(=O)O)cc2)c1 [Example 5-6]"
observed_measurement = 5.00

[[record]]
compound = "COc1ccc(CN(Cc2cccc(Cl)c2)S(=O)(=O)c2ccc(C(=O)O)cc2)cc1 [Example 5-14]"
observed_measurement = 5.73

[[record]]
compound = "COc1ccc(CN(Cc2ccc(C(=O)O)cc2)S(=O)(=O)c2ccc(O)cc2)cc1 [Example 5-44]"
observed_measurement = 5.46

[[record]]
compound = "CC(=O)Nc1ccc(S(=O)(=O)N(Cc2ccccc2)CC2CCC(C(=O)O)CC2)cc1 (stereo not drawn) [Example 5-21]"
observed_measurement = 5.79

[[record]]
compound = "Cc1ccc(S(=O)(=O)N(Cc2ccc(F)cc2)CC2CCC(C(=O)O)CC2)cc1 (stereo not drawn) [Example 5-20]"
observed_measurement = 7.08

[[record]]
compound = "COc1ccc(CN(Cc2ccccc2)S(=O)(=O)c2ccc(C(=O)O)cc2)cc1OC [Example 5-39]"
observed_measurement = 6.17

[[record]]
compound = "COc1ccc(CN(Cc2ccccc2)S(=O)(=O)c2ccc(C(=O)O)cc2)cc1 [Example 5-1]"
observed_measurement = 6.66

[[record]]
compound = "COc1ccc(CN(Cc2ccc(F)cc2)S(=O)(=O)c2ccc(C(=O)O)cc2)cc1 [Example 5-10]"
observed_measurement = 5.71

[[record]]
compound = "Cn1c(=O)c(=O)n(C)c2cc(S(=O)(=O)Nc3ccc(Cc4ccccn4)cc3)ccc21 [Example 6-4]"
observed_measurement = 5.21

[[record]]
compound = "COc1ccc(CN(Cc2ccccc2)S(=O)(=O)c2ccc(-c3nn[nH]n3)cc2)cc1 [Example 5-46]"
observed_measurement = 5.44

[[record]]
compound = "O=C(O)c1ccc(CN(Cc2cccc(F)c2)S(=O)(=O)c2ccc(O)cc2)cc1 [Example 5-45]"
observed_measurement = 6.34

[[record]]
compound = "COc1ccccc1CN(Cc1ccc(C(=O)O)cc1)S(=O)(=O)c1ccc(O)cc1 [Example 5-42]"
observed_measurement = 5.59

[[record]]
compound = "O=C(O)c1ccc(S(=O)(=O)N(Cc2ccccc2)Cc2ccccc2)cc1 [Example 5-28, 4-(N,N-dibenzylsulfamoyl)benzoic acid]"
observed_measurement = 5.11


----------
biological target: hT2R16 (Homo sapiens (Human)); assay: hT2R panel inhibition, transient HEK293 G16g44, agonist Salicin 1 mM; type: cell-based; details: HEK293, compound at 25 μM; receptor activated to EC80 with the corresponding agonist; read-out: screening result against bitter receptor 16
Sequence (Q9NYV7 whole entry): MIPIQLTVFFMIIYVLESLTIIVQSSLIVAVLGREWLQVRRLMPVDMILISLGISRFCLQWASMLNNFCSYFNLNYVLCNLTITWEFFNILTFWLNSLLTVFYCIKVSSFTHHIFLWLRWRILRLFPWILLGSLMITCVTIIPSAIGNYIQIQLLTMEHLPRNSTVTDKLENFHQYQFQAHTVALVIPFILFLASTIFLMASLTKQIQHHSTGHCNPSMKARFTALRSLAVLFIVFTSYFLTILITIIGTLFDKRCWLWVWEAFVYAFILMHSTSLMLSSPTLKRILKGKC
measured-property: inhibition at 25 µM

[[record]]
compound = "CCOc1ccc(CN(Cc2ccco2)S(=O)(=O)c2ccc(C(=O)O)cc2)cc1"
test_system = "hT2R16 (Homo sapiens (Human))"
observed_measurement = "20 to 40%"

[[record]]
compound = "CCc1ccc(CN(Cc2ccccc2)S(=O)(=O)c2ccc(C(=O)O)cc2)cc1"
test_system = "hT2R16 (Homo sapiens (Human))"
observed_measurement = "40 to 60%"

[[record]]
compound = "O=C(O)c1ccc(S(=O)(=O)N(Cc2ccccc2)Cc2ccccc2F)cc1"
test_system = "hT2R16 (Homo sapiens (Human))"
observed_measurement = "20 to 40%"

[[record]]
compound = "CCCOc1ccc(CN(Cc2ccco2)S(=O)(=O)c2ccc(C(=O)O)cc2)cc1"
test_system = "hT2R16 (Homo sapiens (Human))"
observed_measurement = "20 to 40%"

[[record]]
compound = "Cc1ccc(S(=O)(=O)N(Cc2ccccc2)CC2CCC(C(=O)O)CC2)cc1 (stereo not shown)"
test_system = "hT2R16 (Homo sapiens (Human))"
observed_measurement = "40 to 60%"

[[record]]
compound = "COc1cccc(CN(Cc2ccco2)S(=O)(=O)c2ccc(C(=O)O)cc2)c1"
test_system = "hT2R16 (Homo sapiens (Human))"
observed_measurement = "20 to 40%"

[[record]]
compound = "O=C(O)c1ccc(S(=O)(=O)N(Cc2ccccc2)Cc2ccccc2Cl)cc1"
test_system = "hT2R16 (Homo sapiens (Human))"
observed_measurement = "40 to 60%"

[[record]]
compound = "N#Cc1ccccc1CN(Cc1ccccc1)S(=O)(=O)c1ccc(C(=O)O)cc1"
test_system = "hT2R16 (Homo sapiens (Human))"
observed_measurement = "20 to 40%"

[[record]]
compound = "N#Cc1ccc(CN(Cc2ccccc2)S(=O)(=O)c2ccc(C(=O)O)cc2)cc1"
test_system = "hT2R16 (Homo sapiens (Human))"
observed_measurement = "20 to 40%"

[[record]]
compound = "Cc1ccc(S(=O)(=O)N(Cc2ccc(F)cc2)CC2CCC(C(=O)O)CC2)cc1 (stereo not shown)"
test_system = "hT2R16 (Homo sapiens (Human))"
observed_measurement = "40 to 60%"

[[record]]
compound = "O=C(O)c1ccc(CN(Cc2ccccc2)S(=O)(=O)c2ccc(C(=O)O)cc2)cc1"
test_system = "hT2R16 (Homo sapiens (Human))"
observed_measurement = "20 to 40%"

[[record]]
compound = "COc1cc(OC)c(CN(Cc2ccccc2)S(=O)(=O)c2ccc(C(=O)O)cc2)c(OC)c1"
test_system = "hT2R16 (Homo sapiens (Human))"
observed_measurement = "20 to 40%"

[[record]]
compound = "COc1ccc(CN(C(C)c2ccccc2)S(=O)(=O)c2ccc(C(=O)O)cc2)cc1 (stereo not shown)"
test_system = "hT2R16 (Homo sapiens (Human))"
observed_measurement = "40 to 60%"

[[record]]
compound = "COc1ccc(CN(Cc2ccccc2OC)S(=O)(=O)c2ccc(C(=O)O)cc2)cc1"
test_system = "hT2R16 (Homo sapiens (Human))"
observed_measurement = "20 to 40%"

[[record]]
compound = "COc1ccc(C(NS(=O)(=O)c2ccc(C(=O)O)cc2)c2ccccc2)cc1 (stereo not shown)"
test_system = "hT2R16 (Homo sapiens (Human))"
observed_measurement = "60 to 80%"

[[record]]
compound = "COc1ccc(CN(Cc2ccc(F)c(OC)c2)S(=O)(=O)c2ccc(C(=O)O)cc2)cc1"
test_system = "hT2R16 (Homo sapiens (Human))"
observed_measurement = "40 to 60%"

[[record]]
compound = "O=C(O)c1ccc(S(=O)(=O)N(Cc2ccccc2)Cc2ccc3c(c2)OCO3)cc1"
test_system = "hT2R16 (Homo sapiens (Human))"
observed_measurement = "40 to 60%"

[[record]]
compound = "CSc1ccc(CN(Cc2ccccc2)S(=O)(=O)c2ccc(C(=O)O)cc2)cc1"
test_system = "hT2R16 (Homo sapiens (Human))"
observed_measurement = "20 to 40%"

[[record]]
compound = "COc1ccc(CN(Cc2cccc(OC)c2)S(=O)(=O)c2ccc(C(=O)O)cc2)cc1"
test_system = "hT2R16 (Homo sapiens (Human))"
observed_measurement = "20 to 40%"

[[record]]
compound = "Cc1cccc(CN(Cc2ccccc2)S(=O)(=O)c2ccc(C(=O)O)cc2)c1"
test_system = "hT2R16 (Homo sapiens (Human))"
observed_measurement = "20 to 40%"

[[record]]
compound = "COc1ccc(CN(CCc2ccccc2)S(=O)(=O)c2ccc(C(=O)O)cc2)cc1"
test_system = "hT2R16 (Homo sapiens (Human))"
observed_measurement = "20 to 40%"

[[record]]
compound = "COc1ccc(CN(Cc2ccccc2Cl)S(=O)(=O)c2ccc(C(=O)O)cc2)cc1"
test_system = "hT2R16 (Homo sapiens (Human))"
observed_measurement = "20 to 40%"

[[record]]
compound = "O=C(O)c1ccc(S(=O)(=O)N(Cc2ccccc2)Cc2ccccc2)cc1"
test_system = "hT2R16 (Homo sapiens (Human))"
observed_measurement = "20 to 40%"

[[record]]
compound = "Cc1ccccc1CN(Cc1ccccc1)S(=O)(=O)c1ccc(C(=O)O)cc1"
test_system = "hT2R16 (Homo sapiens (Human))"
observed_measurement = "20 to 40%"

[[record]]
compound = "CC(=O)Nc1ccc(S(=O)(=O)N(Cc2ccccc2)CC2CCC(C(=O)O)CC2)cc1 (stereo not shown)"
test_system = "hT2R16 (Homo sapiens (Human))"
observed_measurement = "20 to 40%"

